molecular target: HIV-1LAI envelope gp120 (Human immunodeficiency virus type 1 group M subtype B, UniProt P03377); assay type: binding; settings: CCR5 18-mer scan; radiolabeled HIV-1LAI gp120; background subtracted
parameterMeasured: Counts per 20′ Average-background (counts per 20′)
Use counts per 20′ as the unit, but write only the number.

LTVPFWAHYAAAQWDFGN [CCR5 segment 81-98]    306

Fill in: Counts per 20′ Average-background of LPPLYSLVFIFGFVGNML [CCR5 segment 33-50] is ___
705

Fill in: Counts per 20′ Average-background of LKSMTDIYLLNLAISDLF [CCR5 segment 61-78] is ___
210

Fill in: Counts per 20′ Average-background of `TVTFGVVTSVITWVVAVF` is ___
−25

Fill in: Counts per 20′ Average-background of `LPGIIFTRSQKEGLHYTC` is ___
118

Fill in: Counts per 20′ Average-background of FSGIFFIILLTIDRYLAV [CCR5 segment 113-] is ___
83

Fill in: Counts per 20′ Average-background of LKARTVTFGVWDSVITWV [CCR5 segment 137-] is ___
74

Fill in: Counts per 20′ Average-background of GEKFRNYLLVFFQKHIAK [CCR5 segment 301-] is ___
69

Fill in: Counts per 20′ Average-background of RNEKKRHRAVRLIFTIMI [CCR5 segment 225-] is ___
23

Fill in: Counts per 20′ Average-background of QWDFGNTMCQLLTGLYFI [CCR5 segment 93-] is ___
1019

Fill in: Counts per 20′ Average-background of YAFVGEKFRNYLLVFFQK [CCR5 segment 297-] is ___
596

Fill in: Counts per 20′ Average-background of KRHRAVRLIFTIMIVYFL [CCR5 segment 229-] is ___
36
